- TARGET UNDER TEST: Kv1.5 (Homo sapiens)
- Construct: expressed in transfected cells; host or cells: HEK or LTK- cells
- Sequence (P22460 whole entry): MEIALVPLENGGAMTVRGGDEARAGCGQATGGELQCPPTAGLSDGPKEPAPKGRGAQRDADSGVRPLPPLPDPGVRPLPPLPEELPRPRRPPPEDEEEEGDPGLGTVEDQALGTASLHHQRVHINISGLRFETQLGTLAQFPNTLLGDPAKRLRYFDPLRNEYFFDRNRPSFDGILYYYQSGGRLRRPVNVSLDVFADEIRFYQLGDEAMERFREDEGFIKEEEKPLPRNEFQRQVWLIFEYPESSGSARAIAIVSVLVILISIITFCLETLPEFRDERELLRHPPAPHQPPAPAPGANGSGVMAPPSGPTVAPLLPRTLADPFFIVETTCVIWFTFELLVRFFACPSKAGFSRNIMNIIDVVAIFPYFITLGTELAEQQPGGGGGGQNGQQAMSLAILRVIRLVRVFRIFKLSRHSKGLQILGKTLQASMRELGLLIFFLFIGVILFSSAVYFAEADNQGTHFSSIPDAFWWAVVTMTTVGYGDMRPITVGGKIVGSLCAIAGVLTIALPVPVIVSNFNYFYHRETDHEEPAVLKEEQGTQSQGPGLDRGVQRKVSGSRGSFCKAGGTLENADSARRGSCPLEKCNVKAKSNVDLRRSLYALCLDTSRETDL
- TEST SUMMARY: Kv1.5 Patch Clamp EP (whole cell patch clamp; single point at 1 μM and IC50)
- Type: cell-based
- TEST CONDITIONS: single point at 1.0 μM, Kv1.5 stably over expressed in HEK or LTK- cells
inhibition at 1 µM overview
Please reply with the bare figure in % and do not write the unit itself.

COMPOUND	UNITS SYMBOL	inhibition at 1 µM
CCN(CC)c1ccc(C2N(CCc3ccc(OC)cc3)C(=O)C3(CCN(C(=O)OC(C)(C)C)CC3)N2C)cc1 (stereo not drawn) [Compound 39]	%	86
COc1ccc(C2NC3(CCN(C(=O)OC(C)(C)C)CC3)C(=O)N2CCCc2ccccc2)cc1 (stereo not drawn) [Compound 87]	%	5
CN1C(c2ccc(C3CC3)cc2)N(CCCc2ccccc2)C(=O)C12CCN(C(=O)OC(C)(C)C)CC2 (stereo not drawn) [Compound 47]	%	75
CN1C(c2ccc(C3CC3)cc2)N(CCc2ccc(OC(F)(F)F)cc2)C(=O)C12CCN(C(N)=O)CC2 (stereo not drawn) [Compound 14]	%	59

The reported inhibition at 1 µM value, Kv1.5 (Homo sapiens), for COc1ccc(CCN2C(=O)C3(CCN(C(N)=O)CC3)N(C)C2c2ccc(C(F)(F)F)cc2)cc1 (stereo not drawn) [Compound 11] reads 29

Log: Kv1.5 (Homo sapiens), compound CN1C(c2ccc(C3CC3)cc2)N(CCCc2ccccc2)C(=O)C12CCNCC2 (stereo not drawn) [Compound 43] , inhibition at 1 µM = 23

GET /values?item= COc1ccc(CCN2C(=O)C3(CCN(C(=O)OC(C)(C)C)CC3)N(C)C2c2ccc(OC(F)F)cc2)cc1 (stereo not drawn) [Compound 40] &system= Kv1.5 (Homo sapiens) returns inhibition at 1 µM: 22

COc1ccc(CCN2C(=O)C3(CCN(C(=O)N(C)OC)CC3)N(C)C2c2ccc(C3CC3)cc2)cc1 (stereo not drawn) [Compound 28] on Kv1.5 (Homo sapiens) gives inhibition at 1 µM = 88

Summary line: COc1ccc(CCN2C(=O)C3(CCN(C(=O)N4CCOCC4)CC3)N(C)C2c2ccc(C3CC3)cc2)cc1 (stereo not drawn) [Compound 24] , Kv1.5 (Homo sapiens), reported inhibition at 1 µM = 82

Value sought: inhibition at 1 µM, system Kv1.5 (Homo sapiens), item COC(=O)N1CCC2(CC1)C(=O)N(CCc1ccc(OC)cc1)C(c1ccc(C3CC3)cc1)N2C (stereo not drawn) [Compound 41] . Result: 17

Measured inhibition at 1 µM for this entry COc1ccc(CCN2C(=O)C3(CCN(C(N)=O)CC3)NC2c2ccc(C3CC3)cc2)cc1 (stereo not drawn) [Compound 74] on Kv1.5 (Homo sapiens): 5

Record COc1ccc(CCN2C(=O)C3(CCN(C(=O)NNC(=O)OC(C)(C)C)CC3)N(C)C2c2ccc(C3CC3)cc2)cc1 (stereo not drawn) [Compound 29] has Kv1.5 (Homo sapiens) inhibition at 1 µM equal to 83

The value of inhibition at 1 µM recorded for COc1ccc(CCN2C(=O)C3(CCN(S(C)(=O)=O)CC3)N(C)C2c2ccc(C3CC3)cc2)cc1 (stereo not drawn) [Compound 32] when tested on Kv1.5 (Homo sapiens) reads 90

Measured on Kv1.5 (Homo sapiens), COc1ccc(CCN2C(=O)C3(CCN(C(N)=O)CC3)N(C)[C@@H]2c2ccc(C3CC3)cc2)cc1 [Compound 98] has a documented inhibition at 1 µM of 90

Short answer on Kv1.5 (Homo sapiens) for COc1ccc(CCN2C(=O)C3(CCNCC3)N(C)C2c2ccc(OC(F)F)cc2)cc1 (stereo not drawn) [Compound 3] , inhibition at 1 µM: 6
